Listed here: items and their measured abundance fitness.
B1: Chromodomain-helicase-DNA-binding protein 4, residues 365 to 417; numbered along this chain, Q14839 (parent)
chain: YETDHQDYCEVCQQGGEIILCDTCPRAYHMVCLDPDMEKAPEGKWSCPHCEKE

Variants of: B1
TEST_METHOD_NOTES: abundance fitness (aPCA) (normalised: wild type 0, dead -1); higher = more abundant; growth selection in yeast, the domain comes from the species named
EXPERIMENTAL_SETUP: Homo sapiens
Write the number on its own, no unit after it.

Examples with their reported abundance fitness follow.
| MUTATION_DESCRIPTOR | READOUT_NUMBER |
| --- | --- |
| C12T | -0.46 |
| W45K | -0.483 |
| V31C | 0.138 |
| Q14N | -0.362 |
| G43I | -0.382 |

## Task // query abundance fitness value for entry `E53H`
## Result -0.378

## Task Quick one: abundance fitness of `Y8V` ?
## Result -0.124

## Task Fill in: abundance fitness of `C47E` is ___
## Result -0.331

## Task Field request: abundance fitness | item: `K52W`
## Result -0.346
